Molecular target: human recombinant HDAC6 (Homo sapiens)
Construct: purchased Calbiochem Inc. 382180
Sequence (Q9UBN7 1-1215): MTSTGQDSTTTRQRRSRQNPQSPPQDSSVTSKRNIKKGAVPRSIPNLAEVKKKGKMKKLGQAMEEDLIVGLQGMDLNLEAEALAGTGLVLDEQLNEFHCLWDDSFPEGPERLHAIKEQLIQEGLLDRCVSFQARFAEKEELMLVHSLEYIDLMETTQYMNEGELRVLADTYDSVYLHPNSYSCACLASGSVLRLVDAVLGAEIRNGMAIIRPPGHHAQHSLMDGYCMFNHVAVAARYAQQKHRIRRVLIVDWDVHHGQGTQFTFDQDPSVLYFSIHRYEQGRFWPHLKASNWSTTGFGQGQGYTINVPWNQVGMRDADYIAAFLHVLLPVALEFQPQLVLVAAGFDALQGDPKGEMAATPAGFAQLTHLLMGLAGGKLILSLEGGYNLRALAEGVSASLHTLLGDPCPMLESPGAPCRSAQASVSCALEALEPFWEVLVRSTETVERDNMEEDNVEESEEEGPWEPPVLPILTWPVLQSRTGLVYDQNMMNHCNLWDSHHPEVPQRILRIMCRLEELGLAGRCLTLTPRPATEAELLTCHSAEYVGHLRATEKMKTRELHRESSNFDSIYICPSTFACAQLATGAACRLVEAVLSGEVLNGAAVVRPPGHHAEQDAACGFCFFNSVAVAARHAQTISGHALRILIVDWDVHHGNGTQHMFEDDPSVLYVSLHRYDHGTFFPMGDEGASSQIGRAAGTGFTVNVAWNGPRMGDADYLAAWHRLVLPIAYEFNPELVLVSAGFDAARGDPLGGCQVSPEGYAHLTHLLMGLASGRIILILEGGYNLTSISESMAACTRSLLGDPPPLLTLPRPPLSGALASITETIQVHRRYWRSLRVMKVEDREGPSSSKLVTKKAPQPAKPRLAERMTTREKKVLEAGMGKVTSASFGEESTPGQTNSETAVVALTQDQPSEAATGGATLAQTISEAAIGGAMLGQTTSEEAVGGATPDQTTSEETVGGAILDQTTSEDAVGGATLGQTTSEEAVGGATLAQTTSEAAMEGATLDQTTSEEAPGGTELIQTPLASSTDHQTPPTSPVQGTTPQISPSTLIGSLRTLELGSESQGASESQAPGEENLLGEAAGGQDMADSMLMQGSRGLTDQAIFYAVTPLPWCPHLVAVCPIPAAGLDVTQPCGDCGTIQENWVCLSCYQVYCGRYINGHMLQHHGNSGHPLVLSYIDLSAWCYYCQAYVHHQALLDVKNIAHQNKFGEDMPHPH
Test: HDAC6 enzyme activity inhibition (HDAC Fluorimetric Drug Discovery Kit)
Format: biochemical
Conditions: HDAC1 IC50 / HDAC6 IC50
parameter measured: HDAC6 selectivity (fold)
Answer in fold, number only, no unit symbol.

compound	HDAC6 selectivity (fold)
Fc1cc(-c2nnc(C(F)F)o2)ccc1Cn1cc(-c2cccc(C3CCN(C4COC4)CC3)c2)nn1 [Compound 4293]	618
Cn1c(Cc2ccc(-c3nnc(C(F)F)o3)cc2)nnc1-c1ccccc1 [Compound 3981]	41
Fc1cccnc1-c1cn(Cc2ccc(-c3nnc(C(F)F)o3)cn2)nn1 [Compound 4178]	896
FC(F)c1nnc(-c2ccc(Cn3cc(-c4cccc(CN5CCC5)c4)nn3)cc2)o1 [Compound 4409]	96
Fc1cc(-c2nnc(C(F)F)o2)ccc1Cn1cc(-c2ccc(F)c(N3CCNCC3)c2)nn1 [Compound 4397]	766
FC(F)c1nnc(-c2ccc(Cn3cc(-c4ccccc4-n4cncn4)nn3)nc2)o1 [Compound 4286]	154
FC(F)c1nnc(-c2ccc(Cn3cc(-c4ccc5[nH]cc(CN6CCOCC6)c5c4)nn3)cc2)o1 [Compound 4186]	4464

Query compound follows.
Task: What value of HDAC6 selectivity (fold) has been recorded for this entry: FC(F)c1nnc(-c2ccc(Cn3cc(-c4ccc5[nH]cnc5c4)nn3)nc2)o1 [Compound 3843]
Output: 5952
